# method-description: Steady-state pharmacokinetics of cediranib given with chemotherapy
# Assay type: in vivo, human
# study-conditions: human, plasma, oral, 20 mg, tmax, Arm 3B (with irinotecan and cetuximab), cediranib 20 mg, n=3; median (range)
assay-metric: Tmax
Remember to quote the unit after the number.

What does the data say about its Tmax? Entry: COc1cc2c(Oc3ccc4[nH]c(C)cc4c3F)ncnc2cc1OCCCN1CCCC1 [cediranib, Cediranib]
4 h

====

# method-description: clinical
# study-conditions: human, in vivo, Cmax
assay-metric: Cmax (ng/mL)
Answers are plain numbers, in ng/mL.

What does the data say about its Cmax? Entry: "CCc1c2c(nc3ccc(OC(=O)N4CCC(N5CCCCC5)CC4)cc13)-c1cc3c(c(=O)n1C2)COC(=O)[C@]3(O)CC"
3290
